System: MDA-MB-468 breast
Assay: NCI tumour cell line growth inhibition, 48 h
observable: TGI (µM)
Numeric answer only, unit µM assumed.

* CCn1c(-c2nonc2N)nc2c(C#CC(C)(C)O)ncc(OC[C@@H]3CCCN3)c21 | 7.19
* CC(C)C[C@H](NC(=O)[C@@H]1CCCCCCCCCCC(=O)N[C@@H](CC(=O)N2CCC[C@@H]2C2CCCC2)C(=O)N1)B(O)O | 0.0044

Form field - read-out: TGI; system: MDA-MB-468 breast; submitted item: Oc1ccc(CSc2nnc(-c3ccc(Oc4ccccc4)cc3)n2-c2ccccc2)c2cccnc12
6.81

* * *

Tested on: MDA-MB-468 breast
Experiment: NCI tumour cell line growth inhibition, 48 h; in the data active = GI50 below about 0.43 µM; inactive = the rest
Choose one outcome from this list and give only that: 1 = active, -1 = inactive

Example cases with answers are listed next.
• CCCCCCCCCCCCCCCCCCNC(=O)[C@H]1CSC(c2ccc(F)c(OC)c2)N1 (stereo not given in full) = -1
• CC(C)C[C@H](NC(=O)[C@@H]1CCCCCCCCCCC(=O)N[C@@H](CC(=O)N2CCC[C@@H]2C2CCCC2)C(=O)N1)B(O)O = 1
• CCn1c(-c2nonc2N)nc2c(C#CC(C)(C)O)ncc(OC[C@@H]3CCCN3)c21 = 1
• NC(=O)c1cc(-c2ccc3ncnc(N4CCc5cc(F)c(Cl)cc54)c3c2)cnc1N = 1

With those in mind, consider the next molecule.
Which outcome was assigned to COc1ccc(CNC(=O)c2ccc(-c3cc(-c4nnc(C)o4)ccc3C)cc2)cc1 in this test?
-1

* * *

Tested on: RPMI-8226 leukemia
Assay: NCI tumour cell line growth inhibition, 48 h; in the data active means GI50 below about 0.43 µM; inactive means the rest
Thanks in advance; please answer with one of these: active, inactive

• Cc1cccc(-c2nc(Nc3cccc(S(N)(=O)=O)c3)c3ccccc3n2)c1 = inactive

Short answer needed: outcome of this test for O=C(NO)c1ccc(CN2CCN(c3nc(-c4ccccc4)c4ccccc4n3)CC2)cc1 ?
inactive

Test call, this molecule: CC(C)C[C@H](NC(=O)[C@@H]1CCCCCCCCCCC(=O)N[C@@H](CC(=O)N2CCC[C@@H]2C2CCCC2)C(=O)N1)B(O)O
active

Status in this test for O=C1Nc2cc(Cl)ccc2/C1=C/c1ccc(OCc2ccc(Br)cc2F)cc1 ?
inactive

* * *

Form field: GI50 (one value per entry).
Tested on: SN12C renal
Assay: NCI tumour cell line growth inhibition, 48 h

* Brc1ccc(N/N=C/c2c[nH]c3ccccc23)nc1 | 2.28 µM
* O=C(NO)c1ccc(CN2CCN(c3nc(-c4ccccc4)c4ccccc4n3)CC2)cc1 | 5.65 µM
* O=C1Nc2cc(Cl)ccc2/C1=C/c1ccc(OCc2ccc(Br)cc2F)cc1 | 5.31 µM

Here is the next item to consider.
Dear colleague, I am looking for the recorded GI50 of the following compound: Cc1cccc(-c2nc(Nc3cccc(S(N)(=O)=O)c3)c3ccccc3n2)c1
> 100 µM

* * *

System: MDA-MB-468 breast
Test: NCI tumour cell line growth inhibition, 48 h
log10(TGI) overview
Parameter value (number): base-10 log of TGI in µM.

Here are 7 compounds together with their reported answers.
• Cc1ccc(S(=O)c2ccc([N+](=O)[O-])c3nonc23)cc1 (stereo not given) = 0.56
• C#CCn1cc(C=C2C(=O)NC(=S)NC2=O)c2cc(Cl)ccc21 = 0.71
• O=C(NO)c1ccc(CN2CCN(c3nc(-c4ccccc4)c4ccccc4n3)CC2)cc1 = 0.86
• COc1ccc(CNC(=O)c2ccc(-c3cc(-c4nnc(C)o4)ccc3C)cc2)cc1 = 1.33
• COc1ccc(-c2nn(-c3cccc(Cl)c3)cc2-c2cc(-c3cccs3)no2)cc1 = 1.09
• O=C1c2c(O)ccc(O)c2C(=O)c2c(NCCNCCO)ccc(NCCNCCO)c21 = -0.46
• Cc1nc2cc(Nc3nc(Nc4ccc(F)cc4)nc(-c4ccc(Cl)cc4)n3)ccc2n1Cc1ccccc1 = 1.94

Next compound, log10(TGI) to be filled in.
// lookup log10(TGI) for O=C1Nc2cc(Cl)ccc2/C1=C/c1ccc(OCc2ccc(Br)cc2F)cc1
0.67

* * *

Test system: HOP-62 NSCLC
Assay: NCI tumour cell line growth inhibition, 48 h; in the data active = GI50 below about 0.43 µM; inactive = the rest
Outcomes you can answer with include only these: active, inactive

For orientation, consider the following solved cases.
* CC(C)C[C@H](NC(=O)[C@@H]1CCCCCCCCCCC(=O)N[C@@H](CC(=O)N2CCC[C@@H]2C2CCCC2)C(=O)N1)B(O)O | active
* O=C(NO)c1ccc(CN2CCN(c3nc(-c4ccccc4)c4ccccc4n3)CC2)cc1 | inactive
* Cc1cccc(-c2nc(Nc3cccc(S(N)(=O)=O)c3)c3ccccc3n2)c1 | inactive

In the following, a different molecule is considered.
Per the assay record, what outcome was assigned to Brc1ccc(N/N=C/c2c[nH]c3ccccc23)nc1 ?
inactive

* * *

Tested on: MDA-MB-468 breast
Experiment: NCI tumour cell line growth inhibition, 48 h; in the data active = GI50 below about 0.43 µM; inactive = the rest
Respond with a class label; see true (active), false (inactive)

A selection of reference data follows.
* COc1ccccc1-c1nccc(COc2ccccc2C[C@@H](Oc2ncnc3sc(-c4ccc(F)cc4)c(-c4ccc(OCCN5CCN(C)CC5)c(Cl)c4C)c23)C(=O)O)n1 | true
* CCCCCCCCCCCCNC(=O)[C@H]1CSC(c2ccsc2)N1 (stereo not given in full) | false
* O=C(NO)c1ccc(CN2CCN(c3nc(-c4ccccc4)c4ccccc4n3)CC2)cc1 | false
* COc1ccc(-c2nn(-c3cccc(Cl)c3)cc2-c2cc(-c3cccs3)no2)cc1 | false
* O=C1c2cc3c(cc2-c2c1c1cc(F)c(F)cc1c(=O)n2C[C@H](O)CO)OCO3 | true

Status in this test for CCOC(=O)C(=Cc1c(-c2ccccc2)[nH]c2ccccc12)C(=O)OCC ?
false

Kindly provide the recorded test outcome for the following compound: O=c1c2ccccc2c(=O)c2c1sc1c(=O)c3ccc(O)cc3c(=O)c12
false

Record request — test call for Cc1cc(Nc2cc(N3CCN(C)CC3)nc(C#Cc3ccccc3)n2)n[nH]1
false

Given COc1ccc2nc3cc(Cl)ccc3c(Nc3ccc(O)c(CN4CCCC4)c3)c2c1 , state the outcome it received in this test.
false

Just curious, what result did COC12C=C/C(=C(/C(=O)OCc3csc(SC)n3)C(=O)CCCCCCCCC3(OC)C=C/C(=C(/C(=O)OCc4cnc(SC)s4)C(=O)CCCCCCCC1)O3)O2 (stereo not given) get here?
false
